- MEASUREMENT_TARGET: hNLRP3 inflammasome (Homo sapiens, UniProt Q96P20)
- Construct: endogenous in cells; host or cells: THP-1 cells, PMA-differentiated
- Sequence (Q96P20 whole entry): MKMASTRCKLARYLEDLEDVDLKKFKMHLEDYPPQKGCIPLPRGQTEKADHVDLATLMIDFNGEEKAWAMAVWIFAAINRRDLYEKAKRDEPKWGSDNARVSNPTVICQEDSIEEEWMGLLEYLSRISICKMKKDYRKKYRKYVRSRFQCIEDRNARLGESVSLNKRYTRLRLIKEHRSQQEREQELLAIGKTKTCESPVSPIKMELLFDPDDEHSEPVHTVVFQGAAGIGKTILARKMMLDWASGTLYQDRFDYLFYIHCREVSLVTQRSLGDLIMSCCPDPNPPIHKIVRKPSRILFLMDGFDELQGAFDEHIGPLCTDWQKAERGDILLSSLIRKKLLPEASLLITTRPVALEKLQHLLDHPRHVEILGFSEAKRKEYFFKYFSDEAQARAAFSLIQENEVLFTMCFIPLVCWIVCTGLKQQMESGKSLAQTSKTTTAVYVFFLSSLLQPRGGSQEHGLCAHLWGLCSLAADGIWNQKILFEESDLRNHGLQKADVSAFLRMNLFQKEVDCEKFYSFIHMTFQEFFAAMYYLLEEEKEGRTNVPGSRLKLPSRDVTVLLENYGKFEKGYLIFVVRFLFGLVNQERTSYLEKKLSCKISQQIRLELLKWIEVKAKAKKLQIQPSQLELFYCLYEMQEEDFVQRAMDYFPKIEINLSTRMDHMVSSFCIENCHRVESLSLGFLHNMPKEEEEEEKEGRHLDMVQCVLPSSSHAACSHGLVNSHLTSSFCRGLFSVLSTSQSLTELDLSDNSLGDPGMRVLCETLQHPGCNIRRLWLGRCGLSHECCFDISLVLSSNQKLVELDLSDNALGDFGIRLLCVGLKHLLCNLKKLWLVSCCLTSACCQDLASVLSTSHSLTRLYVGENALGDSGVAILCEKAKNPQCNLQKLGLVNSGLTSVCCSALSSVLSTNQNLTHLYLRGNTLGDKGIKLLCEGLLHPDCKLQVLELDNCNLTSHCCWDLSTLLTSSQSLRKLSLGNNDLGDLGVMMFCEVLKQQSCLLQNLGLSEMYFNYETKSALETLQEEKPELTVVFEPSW
- ASSAY_DETAILS: Agonistic effect on the expression of IL-1β in THP-1 cells after PMA-induced differentiation (HTRF)
- Assay type: cell-based
- CONDITIONS_USED: IL-1β level, PMA-differentiated THP-1 cells, 6 hours
Counter-ions that a name gives are not always drawn.
OBSERVED_PROPERTY: EC50 (µM)

A: CCN(CCNc1cc(N)nc2cc(-c3ccn[nH]3)sc12)C(=O)C1CC1
B: CC(C)N1CCN(c2cc(N)nc3cc(-c4ccn[nH]4)sc23)CC1
C: Nc1cc(N[C@@H]2CC[C@@H](O)C2)c2sc(-c3ccn[nH]3)cc2n1 [Compound 30s, hydrochloride]
D: CN(CCCO)c1cc(N)nc2cc(-c3ccn[nH]3)sc12
Put the items in order so that reported EC50 rises from first to last. Please write the labels in the order that was asked for.
B, C, D, A
